Molecular target: NLRP3 (Homo sapiens)
Sequence (Q96P20 whole entry): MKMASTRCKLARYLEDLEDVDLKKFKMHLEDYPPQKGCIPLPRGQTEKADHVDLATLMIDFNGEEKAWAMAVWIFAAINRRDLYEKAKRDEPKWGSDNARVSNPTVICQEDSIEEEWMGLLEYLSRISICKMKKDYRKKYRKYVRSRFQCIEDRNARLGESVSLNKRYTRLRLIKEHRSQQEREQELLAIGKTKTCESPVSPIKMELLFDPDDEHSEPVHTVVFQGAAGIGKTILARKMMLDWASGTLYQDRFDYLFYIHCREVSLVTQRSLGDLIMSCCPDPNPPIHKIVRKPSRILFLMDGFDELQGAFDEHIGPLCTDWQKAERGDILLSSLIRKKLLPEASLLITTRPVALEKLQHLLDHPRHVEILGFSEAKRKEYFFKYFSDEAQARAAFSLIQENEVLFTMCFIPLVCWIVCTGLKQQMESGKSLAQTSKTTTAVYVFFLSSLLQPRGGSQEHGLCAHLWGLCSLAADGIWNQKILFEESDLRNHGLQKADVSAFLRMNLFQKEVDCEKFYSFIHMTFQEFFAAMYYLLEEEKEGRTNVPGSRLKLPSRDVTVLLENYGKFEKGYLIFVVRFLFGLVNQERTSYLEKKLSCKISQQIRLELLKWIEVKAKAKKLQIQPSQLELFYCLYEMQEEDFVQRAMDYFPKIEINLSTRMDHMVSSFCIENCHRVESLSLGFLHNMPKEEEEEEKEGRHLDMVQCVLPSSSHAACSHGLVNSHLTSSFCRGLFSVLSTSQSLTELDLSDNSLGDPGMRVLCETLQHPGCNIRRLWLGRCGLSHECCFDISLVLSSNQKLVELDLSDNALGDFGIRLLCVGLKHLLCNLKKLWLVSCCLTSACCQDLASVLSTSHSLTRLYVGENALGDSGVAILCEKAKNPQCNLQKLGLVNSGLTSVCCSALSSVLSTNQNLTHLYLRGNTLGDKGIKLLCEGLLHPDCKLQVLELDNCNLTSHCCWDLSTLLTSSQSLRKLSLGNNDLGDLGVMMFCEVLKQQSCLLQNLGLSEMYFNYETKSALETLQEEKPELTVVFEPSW
Test: THP-1 cells pyroptosis assay (LPS + nigericin, resazurin readout; THP IC50)
Assay type: cell-based
Design: Seed THP-1 cells (25,000 cells/well) containing 1.0 μg/ml LPS in 40 μl of RPMI medium; host or cells: THP-1 cells
Where a name gives a salt, the structure may show the parent alone.
Give measured IC50 for each item. Keep answers brief.

Here are 3 compounds together with their reported answers.
[2H]C([2H])([2H])Oc1cc(-c2ccc3c(c2NC(=O)NS(=O)(=O)c2ccc(CN(C)C)cc2)CCC3)ccn1 [Example 310]; ≤ 500 nM
CC(C)n1cnc(S(=O)(=O)NC(=O)Nc2c(-c3ccnc(C#N)c3)ccc3c2CCC3)n1 [Example 228, sodium salt]; ≤ 500 nM
CC(C)c1cc(F)cc(-c2ccnc(C#N)c2)c1NC(=O)NS(=O)(=O)C1CN(C(C)C)C1 [Example 74]; ≤ 10000 nM

Param item = CC(C)n1ccc(S(=O)(=O)NC(=O)Nc2c(-c3cccnc3)cc(F)cc2-c2cccnc2)n1 [Example 208] ; retrieve measured IC50.
≤ 5000 nM

* * *

Molecular target: UniProtKB Q96P20
Test: Human whole blood IL1β release assay (LPS + nigericin, AlphaLisa IL-1β; HWB IC50)
Assay type: cell-based
Design: Human whole blood in Li-heparin tubes was obtained from healthy donors from a volunteer donor panel; from tissue; host or cells: human whole blood from healthy donors
Conditions: IL-1β release
pIC50: −log10 of the molar value. Counter-ions that a name gives are not always drawn.
Give measured pIC50 for each item. Keep answers brief.

COC(C)(C)c1cc(S(=O)(=O)NC(=O)Nc2c(-c3cccnc3)cc(F)cc2C(C)C)nn1C; ≥ 6.00
O=C(Nc1c(-c2ccnc(OC3CC3)c2)ccc2c1CCO2)NS(=O)(=O)c1ccn(C2CC2)n1 [Example 276, sodium salt]; ≥ 6.00
CN(C)c1cnnc(S(=O)(=O)NC(=O)Nc2c(-c3ccncc3)cc(F)c3c2CCC3)c1; ≥ 6.00

Count: 3. Required value per item: pIC50.
1. COC1(c2cc(S(=O)(=O)NC(=O)Nc3c(-c4cccnc4)cc(F)c4c3CCC4)nn2C)COC1
2. COc1cc(-c2ccc3c(c2NC(=O)NS(=O)(=O)c2ccn(C(C)(C)CN4CC(OC)C4)n2)CCC3)ccn1
3. COc1cc(-c2ccc3c(c2NC(=O)NS(=O)(=O)c2ccn(C4CCC4)n2)CCC3)ccn1 [Example 244, sodium salt]

1. ≥ 6.00
2. ≥ 6.30
3. ≥ 6.30

Count: 7. Required value per item: pIC50.
1. O=C(Nc1c(-c2ccncc2)cc(F)c2c1CCC2)NS(=O)(=O)C1CN(C2CCC2)C1
2. COc1cc(-c2c(C)cc3c(c2NC(=O)NS(=O)(=O)c2ccn(C4CC4)n2)CCC3)ccn1
3. COc1cc(-c2ccc3c(c2NC(=O)NS(=O)(=O)c2ccn(C(C)(C)CN4CCCC4)n2)CCC3)ccn1 [Example 243, sodium salt]
4. COc1cc(-c2ccc3c(c2NC(=O)NS(=O)(=O)c2ccn(C(C)(C)CN4CC(F)C4)n2)CCO3)ccn1
5. COc1cc(-c2ccc3c(c2NC(=O)NS(=O)(=O)c2cn(C(C)C)cn2)CCC3)ccn1
6. COc1cc(-c2ccc3c(c2NC(=O)NS(=O)(=O)c2ncn(C(C)C)n2)CCC3)ccn1 [Example 232, sodium salt]
7. COc1cc(-c2ccc3c(c2NC(=O)NS(=O)(=O)c2cnn(C(C)C)n2)CCC3)ccn1 [Example 246, sodium salt]

≥ 6.00
≥ 6.00
≥ 6.30
≥ 6.30
≥ 6.00
≥ 6.00
≥ 6.00

Count: 2. Required value per item: pIC50.
1. COc1cc(-c2cc(F)cc(C(C)C)c2NC(=O)NS(=O)(=O)c2cn(C(C)C)cn2)ccn1
2. COc1cc(-c2ccc3c(c2NC(=O)NS(=O)(=O)c2ccn(CCF)n2)CCC3)ccn1 [Example 249, sodium salt]

1. ≥ 5.30
2. ≥ 6.30

Cited source for all entries: patent US20200361895A1
